Listing: EC50 of selected compounds
# TESTED SYSTEM: IRE-1α (Homo sapiens (Human), UniProt O75460)
# Sequence (O75460 19-977): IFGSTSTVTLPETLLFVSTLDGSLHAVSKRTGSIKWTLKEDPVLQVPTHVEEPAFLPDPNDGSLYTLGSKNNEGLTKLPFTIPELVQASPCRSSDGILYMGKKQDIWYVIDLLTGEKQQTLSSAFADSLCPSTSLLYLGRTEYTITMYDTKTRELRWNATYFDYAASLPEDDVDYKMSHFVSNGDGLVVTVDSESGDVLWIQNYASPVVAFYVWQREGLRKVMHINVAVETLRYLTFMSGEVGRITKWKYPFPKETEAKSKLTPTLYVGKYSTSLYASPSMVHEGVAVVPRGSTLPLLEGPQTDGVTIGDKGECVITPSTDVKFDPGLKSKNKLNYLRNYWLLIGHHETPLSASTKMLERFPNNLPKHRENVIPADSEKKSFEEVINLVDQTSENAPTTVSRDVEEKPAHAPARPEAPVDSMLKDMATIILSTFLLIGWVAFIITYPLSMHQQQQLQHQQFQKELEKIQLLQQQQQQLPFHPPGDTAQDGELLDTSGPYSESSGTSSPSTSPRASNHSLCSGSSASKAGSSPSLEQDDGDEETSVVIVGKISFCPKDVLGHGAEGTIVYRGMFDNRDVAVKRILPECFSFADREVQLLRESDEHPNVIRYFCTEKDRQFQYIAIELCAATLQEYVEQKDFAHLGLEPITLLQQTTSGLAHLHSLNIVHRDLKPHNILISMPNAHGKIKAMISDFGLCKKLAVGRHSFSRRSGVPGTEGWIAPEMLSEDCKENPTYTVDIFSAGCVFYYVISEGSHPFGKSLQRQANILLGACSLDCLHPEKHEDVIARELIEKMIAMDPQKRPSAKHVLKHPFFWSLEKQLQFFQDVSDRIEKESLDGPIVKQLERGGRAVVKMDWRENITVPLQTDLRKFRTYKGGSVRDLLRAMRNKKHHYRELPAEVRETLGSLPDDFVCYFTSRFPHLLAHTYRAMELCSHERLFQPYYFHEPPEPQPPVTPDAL
# PROCEDURE DETAILS: Cellular EC50: endogenous XBP-1 splicing in myeloma cells (MM.1s, DTT stress, RT-PCR)
# PARTICULARS: average cellular EC50, XBP-1 splicing in myeloma cells

{"MOL": "CCNC(=O)CCc1nc2c(C=O)c(O)ccc2n1C", "EC50": "> 10 µM"}
{"MOL": "O=Cc1c(O)ccc2[nH]c(CCC(=O)N3CCOCC3)nc12", "EC50": "> 10 µM"}
{"MOL": "COCCNC(=O)Cc1c(C)c2c(OCCOC)cc(O)c(C=O)c2oc1=O", "EC50": "< 10 µM"}
{"MOL": "CN(C)CCNC(=O)c1cc2c(C=O)c(O)ccc2[nH]1", "EC50": "> 10 µM"}
{"MOL": "CCNC(=O)Cc1c(C)oc2c(C=O)c(O)ccc2c1=O", "EC50": "< 10 µM"}
{"MOL": "COCCOCCc1c(C)c2cc(OC)c(O)c(C=O)c2oc1=O", "EC50": "< 10 µM"}
{"MOL": "CCOC(=O)Cc1c(C)c2c(OCCOC)cc(O)c(C=O)c2oc1=O", "EC50": "< 10 µM"}
{"MOL": "CN1CCN(C(=O)c2cc3c(C=O)c(O)ccc3o2)CC1", "EC50": "> 10 µM"}
{"MOL": "COc1cc(O)c(C=O)c2oc(=O)cc(C)c12", "EC50": "< 10 µM"}
{"MOL": "CN(C)CCNC(=O)CCc1cc2c(C=O)c(O)ccc2s1", "EC50": "< 10 µM"}
{"MOL": "COCCOc1cc(O)c(C=O)c2oc(=O)c(C)c(C)c12", "EC50": "< 10 µM"}
{"MOL": "COCCNC(=O)CCc1c(C)c2cc(OCCOC)c(O)c(C=O)c2oc1=O", "EC50": "< 10 µM"}
{"MOL": "COCCNC(=O)Cc1c(C)oc2c(C=O)c(O)ccc2c1=O", "EC50": "< 10 µM"}
{"MOL": "COCc1c(CCC(=O)N2CCOCC2)c(=O)oc2c(C=O)c(O)c(OC)cc12", "EC50": "< 10 µM"}
{"MOL": "O=Cc1c(O)ccc2[nH]c(C(=O)N3CCOCC3)cc12", "EC50": "> 10 µM"}
{"MOL": "COCCNC(=O)c1cc2c(C=O)c(O)ccc2[nH]1", "EC50": "> 10 µM"}
{"MOL": "COCCc1c(C)c2c(OC)cc(O)c(C=O)c2oc1=O", "EC50": "< 10 µM"}
{"MOL": "COCCNC(=O)CCc1nc2c(C=O)c(O)ccc2[nH]1", "EC50": "> 10 µM"}

Origin of the recorded values: patent US9693992B2
